Provide the reported pKi of each item.
target: human 5HT2a receptors (Homo sapiens, UniProt P28223); construct: expressed in transfected cells; host or cells: CHO K1 cells; test: Competition radioligand binding, 5-HT2A
Sequence (P28223 whole entry): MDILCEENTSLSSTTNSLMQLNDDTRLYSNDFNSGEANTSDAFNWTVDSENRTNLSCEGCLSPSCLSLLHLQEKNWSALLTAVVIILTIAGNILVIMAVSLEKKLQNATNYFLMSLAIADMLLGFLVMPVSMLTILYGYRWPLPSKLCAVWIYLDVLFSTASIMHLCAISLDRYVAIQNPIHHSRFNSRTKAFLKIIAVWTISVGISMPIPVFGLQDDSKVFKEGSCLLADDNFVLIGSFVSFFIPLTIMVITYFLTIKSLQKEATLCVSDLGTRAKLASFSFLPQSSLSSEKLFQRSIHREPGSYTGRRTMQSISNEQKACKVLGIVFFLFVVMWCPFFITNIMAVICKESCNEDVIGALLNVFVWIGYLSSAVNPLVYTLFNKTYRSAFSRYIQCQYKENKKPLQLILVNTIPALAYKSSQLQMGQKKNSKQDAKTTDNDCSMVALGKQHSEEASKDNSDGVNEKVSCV
By convention, pKi is the negative base-10 log of a molar concentration.

Determine its reported pKi: N=C(NCc1c(Cl)cccc1Oc1ccccc1)NC(=O)N1CCC(Nc2ccccc2)CC1 6.03

Kindly indicate its recorded pKi. Item: N=C(NCc1ccccc1-c1ccccc1)NC(=O)N1CCC(Nc2ccccc2)CC1 6.04

Answer with the recorded pKi for the molecule listed here: COc1cccc(OC)c1CNC(=N)NC(=O)N1CCC(Nc2ccccc2)CC1 6.74

Provide only the value of recorded pKi for N=C(NCc1cccc2ccccc12)NC(=O)N1CCC(Nc2ccccc2)CC1 6.92

For the molecule CCOc1ccccc1CNC(=N)NC(=O)N1CCC(Nc2ccccc2)CC1 , report pKi. 6.77
